These data points were gathered from patent US20220025021A1.

Recorded neutralization IC50 by entry
target: HIV-1 Env of pseudovirus 0260.v5.c36 (HIV-1); test: cell-based or functional assay
Give the value, in units of µg/mL, as a plain number.

Worked examples, 8 binders total:
binder	neutralization IC50 (µg/mL)
MS-87 (antibody, V domains shown) VH: QVQLVQSGPEVRKPGTSVKVSCKAPGNTLKTYDLHWVRSVPGQGLQWMGWISHEGDKKVIVERFKAKVTITRDRSTNTAYLQLSGLTSGDTAVYYCAKGSKHRLRDYALYDDDGALNWAVDVDYLSNLEFWGQGTAVTVSS VL: DFVLTQSPHSLSVTPGESASISCKSSHSLIHGDRNNYLAWYVQKPGRSPQLLIYLASSRASGVPDRFSGSGSDKDFTLKISRVETEDVGTYYCMQGRESPWTFGQGTKVDIKR	0.114
MS-89 (antibody, V domains shown) VH: QVQLVQSGPEVRKPGTSVKVSCKAPGYTLKTYDLHWVRSVPGQGLQWMGWISHEGDKKVIVERFKAKVTITWDRSTNTAYLQLSGLTSGDTAVYYCAKGSKHRLRDYALYDDDGALNWAVDVDYLSNLEFWGQGTAVTVSS VL: DFVLTQSPLSLSVTPGESASISCKSSHSLIHGDRNNYLAWYVQKPGRSPQLLIYLASSRASGVPDRFSGSGSDKDFTLKISRVETEDVGTYYCMQGRESPWTFGQGTKVDIKR	0.036
MS-75 (antibody, V domains shown) VH: QVQLVQSGPEVRKPGTSVKVSCKASGNTLKTYDLHWVRSVPGQGLQWMGWISHEGDKKVIVERFKAKVTIDWDRSTNTAYLQLSGLTSGDTAVYYCAKGSKHRLRDYALYDDDGALNWAVDVDYLSNLEFWGQGTAVTVSS VL: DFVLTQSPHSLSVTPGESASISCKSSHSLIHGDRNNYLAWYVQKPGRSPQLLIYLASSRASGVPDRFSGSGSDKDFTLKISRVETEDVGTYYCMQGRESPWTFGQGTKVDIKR	0.034
MS-77 (antibody, V domains shown) VH: QVQLVQSGPEVRKPGTSVKVSCKAPGNTFKTYDLHWVRSVPGQGLQWMGWISHEGDKKVIVERFKAKVTIDWDRSTNTAYLQLSGLTSGDTAVYYCAKGSKHRLRDYALYDDDGALNWAVDVDYLSNLEFWGQGTAVTVSS VL: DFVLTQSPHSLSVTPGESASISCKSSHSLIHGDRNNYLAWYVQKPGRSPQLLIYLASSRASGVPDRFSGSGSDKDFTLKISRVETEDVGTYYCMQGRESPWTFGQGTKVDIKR	0.019
MS-84 (antibody, V domains shown) VH: QVQLVQSGPEVRKPGTSVKVSCKAPGNTLKTYDLHWVRSVPGQGLQWMGWISHEGDKKVIVERFKAKVTIDWDRSTNTAYLQLSGLRSGDTAVYYCAKGSKHRLRDYALYDDDGALNWAVDVDYLSNLEFWGQGTAVTVSS VL: DFVLTQSPLSLPVTPGEPASISCKSSHSLIHGDRNNYLAWYVQKPGQSPQLLIYLASSRASGVPDRFSGSGSDKDFTLKISRVEAEDVGVYYCMQGRESPWTFGQGTKVDIKR	0.016
MS-92 (antibody, V domains shown) VH: QVQLVQSGPEVRKPGTSVKVSCKAPGNTLKTYDLHWVRSVPGQGLEWMGWISHEGDKKVIVERFKAKVTIDRDRSTNTAYLQLSGLRSGDTAVYYCAKGSKHRLRDYALYDDDGALNWAVDVDYLSNLEFWGQGTAVTVSS VL: DIVLTQSPHSLSVTPGESASISCKSSHSLIHGDRNNYLAWYVQKPGRSPQLLIYLASSRASGVPDRFSGSGSDKDFTLKISRVETEDVGTYYCMQGRESPWTFGQGTKVDIKR	0.044
MS-78 (antibody, V domains shown) VH: QVQLVQSGPEVRKPGTSVKVSCKAPGNTLKTYDLHWVRSVPGQGLEWMGWISHEGDKKVIVERFKAKVTIDWDRSTNTAYLQLSGLTSGDTAVYYCAKGSKHRLRDYALYDDDGALNWAVDVDYLSNLEFWGQGTAVTVSS VL: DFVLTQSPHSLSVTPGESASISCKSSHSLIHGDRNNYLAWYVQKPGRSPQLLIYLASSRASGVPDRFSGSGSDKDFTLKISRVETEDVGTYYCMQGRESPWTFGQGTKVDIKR	0.02
MS-82 (antibody, V domains shown) VH: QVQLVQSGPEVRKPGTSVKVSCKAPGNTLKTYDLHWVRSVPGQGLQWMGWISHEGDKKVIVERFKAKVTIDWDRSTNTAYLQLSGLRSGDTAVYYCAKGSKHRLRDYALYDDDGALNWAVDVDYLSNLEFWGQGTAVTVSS VL: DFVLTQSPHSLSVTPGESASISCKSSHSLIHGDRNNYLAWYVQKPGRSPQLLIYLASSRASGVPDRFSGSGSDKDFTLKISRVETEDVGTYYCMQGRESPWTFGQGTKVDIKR	0.016

Next binder, neutralization IC50 to be filled in.
stdin: Retrieve neutralization IC50 measured for MS-76 (antibody, V domains shown) VH: QVQLVQSGPEVRKPGTSVKVSCKAPGYTLKTYDLHWVRSVPGQGLQWMGWISHEGDKKVIVERFKAKVTIDWDRSTNTAYLQLSGLTSGDTAVYYCAKGSKHRLRDYALYDDDGALNWAVDVDYLSNLEFWGQGTAVTVSS VL: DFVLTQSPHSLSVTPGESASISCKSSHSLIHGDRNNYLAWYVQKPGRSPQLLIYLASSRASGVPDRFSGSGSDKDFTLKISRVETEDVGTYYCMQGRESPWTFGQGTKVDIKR and print it.
stdout: 0.01
